Tested on: SF-539 CNS
ASSAY_DETAILS: NCI tumour cell line growth inhibition, 48 h
This listing pairs compounds with measured TGI.

>  <COMPOUND>
COc1cc(OC(=O)c2ccccc2)cc2c1C(=O)C=CC2=O

>  <SYSTEM>
SF-539 CNS

>  <LIMIT_OPERATOR>
=

>  <TGI / µM>
41.7

$$$$
>  <COMPOUND>
COC(=O)[C@@H]1CN(C(C)=O)C(=O)N1

>  <SYSTEM>
SF-539 CNS

>  <LIMIT_OPERATOR>
>

>  <TGI / µM>
100

$$$$
>  <COMPOUND>
O=C1Nc2ccccc2/C1=C/C(=O)c1coc2c1C(=O)c1ccccc1C2=O

>  <SYSTEM>
SF-539 CNS

>  <LIMIT_OPERATOR>
>

>  <TGI / µM>
100

$$$$
>  <COMPOUND>
CC1C2(C)OC(=N)C(C#N)(C(c3ccccc3)O2)C1(C#N)C#N (stereo not given)

>  <SYSTEM>
SF-539 CNS

>  <LIMIT_OPERATOR>
=

>  <TGI / µM>
40.3

$$$$
>  <COMPOUND>
NC1=C(NC(=O)Cc2ccc(F)cc2)C(=O)c2ccccc2C1=O

>  <SYSTEM>
SF-539 CNS

>  <LIMIT_OPERATOR>
>

>  <TGI / µM>
100

$$$$
>  <COMPOUND>
COc1cc([C@@H]2OC[C@@H]3C(c4cc(OC)c5c(c4)OCO5)OC[C@@H]32)cc(OC)c1OC (stereo not given in full)

>  <SYSTEM>
SF-539 CNS

>  <LIMIT_OPERATOR>
>

>  <TGI / µM>
100

$$$$
>  <COMPOUND>
O=[N+]([O-])O.[Cu+2].[NH-]CC[NH-].[NH-]CC[NH-]

>  <SYSTEM>
SF-539 CNS

>  <LIMIT_OPERATOR>
>

>  <TGI / µM>
10

$$$$
>  <COMPOUND>
COc1cc(O)c2c(=O)cc(-c3ccc(O)cc3O)oc2c1CC=C(C)C

>  <SYSTEM>
SF-539 CNS

>  <LIMIT_OPERATOR>
=

>  <TGI / µM>
34.7

$$$$
>  <COMPOUND>
C=C1C(=O)O[C@H]2[C@H]1CC/C(COC(=O)NCc1ccc(Cn3c(=O)sn(CCCl)c3=O)cc1)=C\CC[C@@]1(C)O[C@@H]21

>  <SYSTEM>
SF-539 CNS

>  <LIMIT_OPERATOR>
=

>  <TGI / µM>
3.26

$$$$
>  <COMPOUND>
CC[C@]1(Cc2ccc(OC)c(OC)c2)C=[N+]([O-])O[C@H](OC2CCCC2(c2ccccc2)c2ccccc2)[C@@H]1OC(=O)c1ccccc1 (stereo not given in full)

>  <SYSTEM>
SF-539 CNS

>  <LIMIT_OPERATOR>
>

>  <TGI / µM>
100

$$$$
>  <COMPOUND>
COc1ccc2c3c1O[C@]1(C)C34CCN(C)C(C2)C42C=C[C@@]1(OC)c1c(O)ccc(O)c12

>  <SYSTEM>
SF-539 CNS

>  <LIMIT_OPERATOR>
>

>  <TGI / µM>
100

$$$$
>  <COMPOUND>
O=C(CN1CCCCC1)Nc1ccc2sc3ccccc3c(=O)c2n1

>  <SYSTEM>
SF-539 CNS

>  <LIMIT_OPERATOR>
=

>  <TGI / µM>
31.6

$$$$
>  <COMPOUND>
O=c1oc2ccc3ccccc3c2cc1-c1cn2ccccc2n1

>  <SYSTEM>
SF-539 CNS

>  <LIMIT_OPERATOR>
>

>  <TGI / µM>
100

$$$$
>  <COMPOUND>
NC(N)=N/N=C/c1c(-c2ccc(Cl)cc2)nc2sccn12

>  <SYSTEM>
SF-539 CNS

>  <LIMIT_OPERATOR>
=

>  <TGI / µM>
3.36

$$$$
>  <COMPOUND>
O=C1/C(=C/c2cccc(Br)c2)CCc2ccccc21

>  <SYSTEM>
SF-539 CNS

>  <LIMIT_OPERATOR>
=

>  <TGI / µM>
31.4

$$$$
